system: CH1; assay: Ovarian carcinoma cytotoxicity assay; format: cell-based; conditions: 96 hours, sulphorhodamine B; read-out: IC50 CH1
PROPERTY LABEL: pIC50
Please report pIC50 as the negative decimal logarithm of the molar concentration, giving only the number.

[ask] Any idea what pIC50 came out for COc1cc2c(cc1OCCCNC(=O)OCC1c3ccccc3-c3ccccc31)N=C[C@@H]1CCCN1C2=O on CH1?
[reply] 4.92

====

system: A2780; assay: Ovarian carcinoma cytotoxicity assay; format: cell-based, human; conditions: Homo sapiens, A2780; 96 hours, sulphorhodamine B; read-out: IC50 A2780
pIC50: −log10 of the molar value.
Class Satisfied: pIC50 at least 7. Class Not satisfied: pIC50 below 7.

1) COC(=O)CC1=CN2C(=O)c3cc(OC)c(OCc4ccccc4)cc3N=C[C@@H]2C1 ... Satisfied
2) COc1ccc(-c2ccc3c(c2)C(=O)N2CCC[C@H]2C=N3)cc1 ... Not satisfied
3) C=C1C[C@H]2C=Nc3cc(OCc4ccccc4)c(OC)cc3C(=O)N2C1 ... Satisfied
4) COC(=O)CC1=CN2C(=O)c3cc(OC)c(OC)cc3N=C[C@@H]2C1 ... Not satisfied

Shift focus to the following entry.
[ask] Please tell me: is the compound C=C1C[C@H]2C=Nc3ccc(I)cc3C(=O)N2C1 at or over 7 in terms of pIC50?
[reply] Not satisfied
